Recorded IC50 values for a group of compounds are listed next.
- testedOn: VLA-4 (Homo sapiens, UniProt P05556+P13612)
- Construct: endogenous in cells
- Sequence (P13612 34-1032): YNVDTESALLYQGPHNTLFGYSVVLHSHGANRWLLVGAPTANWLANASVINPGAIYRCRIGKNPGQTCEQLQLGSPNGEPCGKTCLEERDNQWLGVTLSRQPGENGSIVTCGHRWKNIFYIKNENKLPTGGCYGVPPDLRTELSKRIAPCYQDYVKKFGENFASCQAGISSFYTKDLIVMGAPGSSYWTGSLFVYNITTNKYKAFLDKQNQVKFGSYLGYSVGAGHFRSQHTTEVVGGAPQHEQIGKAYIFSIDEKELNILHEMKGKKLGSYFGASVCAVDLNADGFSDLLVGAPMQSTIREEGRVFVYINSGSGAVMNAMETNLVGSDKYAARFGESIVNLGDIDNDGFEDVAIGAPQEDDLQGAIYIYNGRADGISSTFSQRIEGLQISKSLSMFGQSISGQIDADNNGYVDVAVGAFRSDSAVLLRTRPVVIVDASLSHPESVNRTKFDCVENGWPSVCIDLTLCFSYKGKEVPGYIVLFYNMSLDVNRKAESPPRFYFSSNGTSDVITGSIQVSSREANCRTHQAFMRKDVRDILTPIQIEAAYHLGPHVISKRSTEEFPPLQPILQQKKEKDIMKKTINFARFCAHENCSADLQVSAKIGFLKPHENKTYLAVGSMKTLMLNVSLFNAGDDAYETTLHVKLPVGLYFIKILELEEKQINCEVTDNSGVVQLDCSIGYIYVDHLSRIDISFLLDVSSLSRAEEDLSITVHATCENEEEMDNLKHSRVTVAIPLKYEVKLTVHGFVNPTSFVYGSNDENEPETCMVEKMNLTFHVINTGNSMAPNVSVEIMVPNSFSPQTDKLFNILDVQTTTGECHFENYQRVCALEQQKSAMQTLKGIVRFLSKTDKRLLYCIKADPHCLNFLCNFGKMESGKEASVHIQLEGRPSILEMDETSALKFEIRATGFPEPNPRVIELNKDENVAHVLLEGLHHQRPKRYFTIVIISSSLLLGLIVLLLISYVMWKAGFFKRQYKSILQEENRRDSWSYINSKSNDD
- Sequence (P05556 21-798): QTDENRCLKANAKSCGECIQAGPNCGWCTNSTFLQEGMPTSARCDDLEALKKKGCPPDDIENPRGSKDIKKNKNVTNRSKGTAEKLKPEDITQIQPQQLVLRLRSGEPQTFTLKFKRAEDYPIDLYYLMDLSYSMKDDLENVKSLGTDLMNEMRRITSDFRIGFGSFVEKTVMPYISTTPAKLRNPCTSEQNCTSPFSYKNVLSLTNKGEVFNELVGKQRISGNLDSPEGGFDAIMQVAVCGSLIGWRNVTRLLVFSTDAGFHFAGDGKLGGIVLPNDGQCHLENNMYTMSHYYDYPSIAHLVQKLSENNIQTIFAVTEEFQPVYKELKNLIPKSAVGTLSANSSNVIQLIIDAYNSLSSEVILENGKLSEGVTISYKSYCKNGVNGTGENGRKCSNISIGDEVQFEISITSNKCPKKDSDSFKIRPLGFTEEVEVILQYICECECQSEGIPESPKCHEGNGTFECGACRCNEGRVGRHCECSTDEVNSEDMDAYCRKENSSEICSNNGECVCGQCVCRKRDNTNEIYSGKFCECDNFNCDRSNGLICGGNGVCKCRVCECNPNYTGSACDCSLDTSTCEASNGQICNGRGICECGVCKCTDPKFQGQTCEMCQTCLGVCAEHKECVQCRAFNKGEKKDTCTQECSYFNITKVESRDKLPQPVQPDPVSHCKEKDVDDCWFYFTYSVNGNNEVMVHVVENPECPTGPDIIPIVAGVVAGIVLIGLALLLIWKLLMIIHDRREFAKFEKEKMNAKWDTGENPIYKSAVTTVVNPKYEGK
- testDetails: V well cell adhesion assay, VLA-4-mediated Jurkat cell binding to VCAM-1 (VLA-4 adhesion)
- recordedConditions: Jurkat cells on VCAM-1 Fc; single experiments run in triplicates

compound: CC12C(=O)N(c3cc(Cl)cc(Cl)c3)C(=O)C1C2(c1ccncc1)c1ccc(OC(F)(F)F)cc1 (single isomer, unassigned) [4x or 4′x diastereomer I (racemate)]
IC50: > 10 µM
//
compound: C[C@]12C(=O)N(c3cc(Cl)cc(Cl)c3)C(=O)[C@H]1[C@H]2c1ccc(Br)cc1 (racemic) [4′f (racemate)]
IC50: > 10 µM
//
compound: CCOC(=O)[C@@]1(c2ccc(Br)cc2)[C@@H]2C(=O)N(c3cc(Cl)cc(Cl)c3)C(=O)[C@@]21C (racemic) [4′j (racemate)]
IC50: > 10 µM
//
compound: CC12C(=O)N(c3cc(Cl)cc(Cl)c3)C(=O)C1C2(c1ccccc1)c1ccccc1 (single isomer, unassigned) [4b enantiomer A]
IC50: > 10 µM
//
compound: C[C@]12C(=O)N(c3cc(Cl)cc(Cl)c3)C(=O)[C@H]1[C@H]2c1ccc(C#N)cc1 (racemic) [4′h (racemate)]
IC50: > 10 µM
//
compound: CC12C(=O)N(c3cc(Cl)cc(Cl)c3)C(=O)C1C2(c1ccc(C#N)cc1)c1ccc(OC(F)(F)F)cc1 (single isomer, unassigned) [4i/4′i diastereomer II (racemate)]
IC50: > 10 µM
